A short record of IC50 observed with JAK2 (Homo sapiens, UniProt O60674) follows.
Sequence (O60674 whole entry, species assumed): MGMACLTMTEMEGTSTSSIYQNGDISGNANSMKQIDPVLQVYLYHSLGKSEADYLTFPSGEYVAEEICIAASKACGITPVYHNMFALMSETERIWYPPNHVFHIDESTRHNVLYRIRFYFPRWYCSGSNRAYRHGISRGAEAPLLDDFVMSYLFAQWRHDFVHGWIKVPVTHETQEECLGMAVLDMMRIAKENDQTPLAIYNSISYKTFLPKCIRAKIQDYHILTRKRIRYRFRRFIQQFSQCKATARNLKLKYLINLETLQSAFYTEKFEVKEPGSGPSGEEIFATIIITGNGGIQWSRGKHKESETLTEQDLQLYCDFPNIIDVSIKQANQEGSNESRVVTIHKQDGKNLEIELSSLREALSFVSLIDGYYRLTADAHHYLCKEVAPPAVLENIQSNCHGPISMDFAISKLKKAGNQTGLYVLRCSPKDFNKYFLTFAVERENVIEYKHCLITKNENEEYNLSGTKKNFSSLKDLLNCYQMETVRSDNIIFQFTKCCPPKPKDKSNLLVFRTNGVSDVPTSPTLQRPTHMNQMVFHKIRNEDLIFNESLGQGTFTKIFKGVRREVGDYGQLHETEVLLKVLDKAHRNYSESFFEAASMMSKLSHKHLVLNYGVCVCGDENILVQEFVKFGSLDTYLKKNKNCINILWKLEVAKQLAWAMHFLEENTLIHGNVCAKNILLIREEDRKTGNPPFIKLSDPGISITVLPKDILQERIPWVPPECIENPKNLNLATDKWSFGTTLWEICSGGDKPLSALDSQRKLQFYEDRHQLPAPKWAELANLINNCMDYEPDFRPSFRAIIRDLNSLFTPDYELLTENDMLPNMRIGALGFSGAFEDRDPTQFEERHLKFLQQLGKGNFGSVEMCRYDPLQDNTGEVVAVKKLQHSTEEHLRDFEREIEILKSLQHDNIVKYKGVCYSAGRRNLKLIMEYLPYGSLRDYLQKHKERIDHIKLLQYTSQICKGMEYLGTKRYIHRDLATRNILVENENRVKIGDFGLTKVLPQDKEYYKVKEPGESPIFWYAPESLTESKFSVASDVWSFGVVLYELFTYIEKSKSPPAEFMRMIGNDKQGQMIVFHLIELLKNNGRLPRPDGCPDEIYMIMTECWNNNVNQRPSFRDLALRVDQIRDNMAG
Write it as a number; the unit nM goes unstated.

compound="CSCC1(C)CCN(n2c(CCO[N+](=O)[O-])nc3cnc4[nH]ccc4c32)CC1 [Compound A12]" measured_on="JAK2 (Homo sapiens, UniProt O60674)" experimental_readout=IC50 quantitative_result=37.9
compound="Nc1nc2cnc3[nH]ccc3c2n1N1CCCCC1 [Compound B1]" measured_on="JAK2 (Homo sapiens, UniProt O60674)" experimental_readout=IC50 quantitative_result=38.7
compound="C[C@@H](OC(=O)CCc1ccccc1/N=N/c1ccc(O)c(C(=O)O)c1)c1nc2cnc3[nH]ccc3c2n1N1CCC(CC#N)CC1 [Compound A1]" measured_on="JAK2 (Homo sapiens, UniProt O60674)" experimental_readout=IC50 quantitative_result=536

For C[C@@H](OC(=O)C(C)(C)Oc1ccccc1/N=N/c1ccc(O)c(C(=O)O)c1)c1nc2cnc3[nH]ccc3c2n1N1CCC(CC#N)CC1 [Compound A3] , what is its reported IC50?
102

N#CC[C@H]1CC[C@H](n2c(N)nc3cnc4[nH]ccc4c32)CC1 [Compound B3] , same question.
0.37
